Record form. Attribute: normalized growth. Fill in for each entry.
# Assay Protocol: chemical genetic growth profiling, strain panel (AID 1159580);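 further: tested at 20 µM; growth read once vehicle control cultures reached saturation at 30 °C; 1 = growth at the plate median or of vehicle wells; lower values mean less growth of the strain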
# Experimental Conditions: S. cerevisiae deletion strains, growth OD, locus YKL067W, strain YNK1, active compounds read low
Screen size: about 5,500 compounds; about 2,000 (36%) were called active. Not shown: some 18% with an inconclusive outcome. Some of the results follow.
Numbers only.

Reference set (6 entries):
[
  {
    "Molecule": "O=C(O)c1cccc2cccc(C(=O)O)c12",
    "normalized growth": 0.0918
  },
  {
    "Molecule": "CN(NC(=S)Nc1cc(Cl)ccc1Cl)c1ccc(C(F)(F)F)cc1[N+](=O)[O-]",
    "normalized growth": 0.953
  },
  {
    "Molecule": "O=C(OCc1ccc(Oc2ccc(Cl)cc2Cl)c([N+](=O)[O-])c1)c1ccc([N+](=O)[O-])o1",
    "normalized growth": 1
  },
  {
    "Molecule": "CCOC(=O)C(NC(C)=O)(Nc1ccc(F)c(Cl)c1)C(F)(F)F (stereo not drawn)",
    "normalized growth": 1
  },
  {
    "Molecule": "NNC(=O)COc1ccc(C2SCCS2)cc1",
    "normalized growth": 0.141
  },
  {
    "Molecule": "CCCCCc1ccc(-c2nc(SCC(C)=O)n[nH]2)cc1",
    "normalized growth": 0.831
  }
]

Batch request: normalized growth for each of the following molecules.
1. CC(Oc1ccc(Cl)cc1Cl)C(=O)NNC(=S)Nc1ccccc1 (stereo not drawn)
2. CCCCc1ccc(N=CNO)c(C)c1
3. COc1cccc(C(=O)C(C#N)=C(SC)SC)c1
4. CC(NC(=S)Nc1ccc(Oc2ccc(Cl)cc2)cc1)c1ccccc1 (stereo not drawn)
5. CSC(SC)=C(C#N)C(=O)c1ccccc1Cl
6. N#CC(C#N)=NNc1cc(C(F)(F)F)ccc1OCC(F)(F)F
7. FC(F)(F)c1ccc(NC(=S)Nc2ccc(C(F)(F)F)cc2Cl)c(Cl)c1

### Response
1. 0.966
2. 0.48
3. 0.508
4. 0.916
5. 0.163
6. 0.739
7. 0.907

###

# Assay Protocol: chemical genetic growth profiling, strain panel (AID 1159580);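 further: tested at 20 µM; growth read once vehicle control cultures reached saturation at 30 °C; 1 = growth at the plate median or of vehicle wells; lower values mean less growth of the strain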
# Experimental Conditions: S. cerevisiae deletion strains, growth OD, locus YOR069W, strain VPS5, active compounds read low
Out of some 5,500 compounds screened, about 2,000 (36%) were called active. Another 18% or so got no clear call; they are omitted. The list shows a part of the results.
Record form. Attribute: normalized growth. Fill in for each entry.
One number for each entry.

Reference set (10 entries):
[
  {
    "Molecule": "C[C@]12CCC3c4ccc(O)cc4CCC3C1CC[C@@H]2OC(=O)CCC1CCCC1 (stereo not given in full)",
    "Metric Name": "normalized growth",
    "Observed Value": 0.994
  },
  {
    "Molecule": "O=c1[nH]cnc2nc[nH]c12",
    "Metric Name": "normalized growth",
    "Observed Value": 0.988
  },
  {
    "Molecule": "O=C1c2ccc(O)c(O)c2C(=O)c2c(O)ccc(O)c21",
    "Metric Name": "normalized growth",
    "Observed Value": 1.01
  },
  {
    "Molecule": "CNC(=O)CSP(=S)(OC)OC",
    "Metric Name": "normalized growth",
    "Observed Value": 1
  },
  {
    "Molecule": "CC(C)(O)CC[C@@H](O)[C@](C)(O)C1CC[C@@]2(O)C3=CC(=O)C4C[C@@H](O)[C@@H](O)C[C@]4(C)C3CC[C@]12C (stereo not given in full)",
    "Metric Name": "normalized growth",
    "Observed Value": 1
  },
  {
    "Molecule": "CCOC(=O)C1=C(C)NC(C)=C(C(=O)OC)C1c1cccc([N+](=O)[O-])c1 (stereo not given)",
    "Metric Name": "normalized growth",
    "Observed Value": 0.997
  },
  {
    "Molecule": "CC1=C(C(=O)O)N2C(=O)[C@@H](NC(=O)[C@H](N)C3=CCC=CC3)C2SC1 (stereo not given in full)",
    "Metric Name": "normalized growth",
    "Observed Value": 0.976
  },
  {
    "Molecule": "CC(=O)OCC(=O)[C@@]1(O)CCC2C3CCC4=CC(=O)CC[C@]4(C)[C@@]3(F)[C@@H](O)C[C@@]21C (stereo not given in full)",
    "Metric Name": "normalized growth",
    "Observed Value": 1.01
  },
  {
    "Molecule": "Cc1cc(C)nc(NS(=O)(=O)c2ccc(N)cc2)n1",
    "Metric Name": "normalized growth",
    "Observed Value": 0.988
  },
  {
    "Molecule": "c1coc(CNc2ncnc3nc[nH]c23)c1",
    "Metric Name": "normalized growth",
    "Observed Value": 1
  }
]

Batch request: normalized growth for each of the following molecules.
1. CC1(C)C[C@@H]2C(=O)CC[C@H]3O[C@]3(C)CC[C@H]21
2. Fc1ccc(C(c2ccc(F)cc2)N2CCN(C/C=C/c3ccccc3)CC2)cc1
3. CN1CCN(C(c2ccccc2)c2ccccc2)CC1

### Response
1: 1; 2: 0.995; 3: 0.998

Batch request: normalized growth for each of the following molecules.
1. CCC(=O)O[C@H]1CCC2C3CCc4cc(O)ccc4C3CC[C@@]21C (stereo not given in full)
2. Cc1ncc([N+](=O)[O-])n1CCO
3. COC(=O)C[C@H]1C(C)(C)C(OC(C)=O)[C@]2(O)C=C3C4CC(=O)O[C@@H](c5ccoc5)[C@]4(C)CCC3[C@@]1(C)C2=O (stereo not given in full)

### Response
0.996
0.989
1

Batch request: normalized growth for each of the following molecules.
1. C/C=C(\C)C(=O)OC1[C@@H]2C=C3C4CC(=O)O[C@@H](c5ccoc5)[C@]4(C)CCC3[C@@](C)(C2=O)[C@@H](C(O)C(=O)OC)C1(C)C (stereo not given in full)
2. CC(=O)OC1CCC2C3CCc4cc(O)ccc4C3CCC12C (stereo not given)
3. Cn1nnnc1SCC1=C(C(=O)O)N2C(=O)C(NC(=O)C(OC=O)c3ccccc3)C2SC1 (stereo not given)
4. CC(=O)Oc1ccc2c(c1)CCC1C2CC[C@@]2(C)C1CC[C@@H]2OC(C)=O (stereo not given in full)

### Response
1. 1
2. 1.01
3. 0.993
4. 0.987
